- measured on: T1, myeloid-derived growth factor (human (produced in the Human Secretome …, UniProt Q969H8 32-173, limits assumed))
- T1 construct: also called MYDGF; bMYDGF
- T1 sequence (looked up): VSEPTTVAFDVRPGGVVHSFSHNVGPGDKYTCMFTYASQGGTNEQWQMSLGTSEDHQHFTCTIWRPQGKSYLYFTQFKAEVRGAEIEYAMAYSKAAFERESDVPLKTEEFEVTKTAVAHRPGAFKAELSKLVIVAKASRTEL
- method: SPR Biacore T200, target on CM5 chip, ADAPT injected, 1:1 fit
attribute measured: pKd
Answers are plain numbers, as −log10 of the molar value.

1. LWWAKVSAIKELQAYGVSDFYYMLITKAKTVEGVEALKLHILAALP (designed binder) [ADAPT variant MYDGF_08] | 6.74

Lab note: next binder to report on.
Query :: Consider the binder LWWAKVWAVAELQKYGVSDFYFKLIDKAKTVEGVEALKLHILAALP (designed binder) [ADAPT variant MYDGF_07] and give its measured pKd.
Result :: 6.64
